Experiment: Pharmacokinetics of compounds in rats (oral)
Assay type: in vivo, SD rats
Conditions: male, SD, rat, plasma, po, 10 mg/kg, male SD rats, 10 mg/kg, read-out: AUC
Description: Male SD rats were purchased from Shanghai SIPPR-Bk Lab Animal Co., Ltd. Each test compound was administered orally (3 rats per group) once to SD rats for pharmacokinetic study. The test compounds were prepared on the day of administration. The test compounds were suspended in 5% DMSO+95% saline, and then vortexed for 2 min and ultrasonicated for 5 min to prepare the administration system. […]
READOUT_NAME: AUC (ng·h/mL)
Answers are plain numbers, in ng·h/mL.

Example cases with answers are listed next.
COMPOUND: Oc1cc(-c2ncc3c(N4CC5CCC(C4)N5)nc(OCC45CCCN4C(c4ccc6occc6c4)CC5)nc3c2F)c2ccccc2c1 (centres unmarked)
READOUT_NAME: AUC
NUMERIC_RESULT: 57
--
COMPOUND: Oc1cc(-c2ncc3c(N4CC5CCC(C4)N5)nc(OCC45CCCN4C(c4ccc6c(c4)OC(F)(F)O6)CC5)nc3c2F)c2ccccc2c1 (centres unmarked)
READOUT_NAME: AUC
NUMERIC_RESULT: 240
--
COMPOUND: Oc1cc(-c2ncc3c(N4CC5CCC(C4)C5(F)F)nc(OC[C@@]45CCCN4C[C@H](F)C5)nc3c2F)c2c(F)c(F)ccc2c1
READOUT_NAME: AUC
NUMERIC_RESULT: 52
--
COMPOUND: Oc1cc(-c2ncc3c(N4CC5CCC(C4)N5)nc(OCC45CCCN4C(c4ccc(C(F)(F)F)cc4)CC5)nc3c2F)c2ccccc2c1 (centres unmarked)
READOUT_NAME: AUC
NUMERIC_RESULT: 533

Supply recorded AUC for Oc1cc(-c2ncc3c(N4CC5CCC(C4)N5)nc(OCC45CCCN4C(c4ccc(OC(F)(F)F)cc4)CC5)nc3c2F)c2ccccc2c1 (centres unmarked) here.
224

---

Test: Pharmacokinetics of compounds in rats (oral)
Type: in vivo, SD rats
Conditions: male, SD, rat, plasma, po, 100 mg/kg, male SD rats, 100 mg/kg, read-out: AUC
# label = 1 if AUC >= 1000 ng·h/mL else 0

COMPOUND: Oc1cc(-c2ncc3c(N4CC5CCC(C4)N5)nc(OCC45CCCN4[C@@H](c4ccc(C(F)(F)F)c(Cl)c4)CC5)nc3c2F)c2c(F)c(F)ccc2c1 (mixture of isomers)
LABEL_VALUE: 0

# check: AUC of Nc1ccc(C(F)(F)F)c(-c2ncc3c(N4CC5CCC(C4)N5)nc(OCC45CCCN4[C@@H](c4ccc6c(c4)OC(F)(F)O6)CC5)nc3c2F)c1 (mixture of isomers) is greater than or equal to 1000 ng·h/mL
1

Does the compound Oc1cc(-c2ncc3c(N4CC5CCC(C4)N5)nc(OCC45CCCN4C(c4ccc(Cl)c(C(F)(F)F)c4)CC5)nc3c2F)c2c(F)c(F)ccc2c1 (centres unmarked) have recorded AUC that is 1000 ng·h/mL or more?
0

Confirm if AUC reported for the compound Nc1cc(F)c(C(F)(F)F)c(-c2ncc3c(N4CC5CCC(C4)N5)nc(OCC45CCCN4C(c4ccc6c(c4)OC(F)(F)O6)CC5)nc3c2F)c1 (centres unmarked) is 1000 ng·h/mL or above.
1

Check this compound for AUC at or above 1000 ng·h/mL: Oc1cc(-c2ncc3c(N4CC5CCC(C4)N5)nc(OCC45CCCN4C(c4ccc(-c6ccc(F)cc6)cc4)CC5)nc3c2F)c2c(F)c(F)ccc2c1 (centres unmarked)
0

---

Experiment: Pharmacokinetics of compounds in rats (oral)
Assay type: in vivo, SD rats
Settings: male SD rats, 100 mg/kg
READOUT_NAME: AUC (ng·h/mL)
Numbers only, in ng·h/mL.

Here are 4 compounds together with their reported answers.
COMPOUND: Oc1cc(-c2ncc3c(N4CC5CCC(C4)N5)nc(OCC45CCCN4[C@@H](c4cc(F)c(F)c(F)c4)CC5)nc3c2F)c2c(F)c(F)ccc2c1 (single isomer, unassigned)
UNIT_OF_MEASUREMENT: ng·h/mL
AUC: 404

COMPOUND: Nc1cc(Cl)c(C(F)(F)F)c(-c2ncc3c(N4C[C@H]5CC[C@@H](C4)N5)nc(OCC45CCCN4C(c4ccc6c(c4)OC(F)(F)O6)CC5)nc3c2F)c1 (some centres unmarked)
UNIT_OF_MEASUREMENT: ng·h/mL
AUC: 1080

COMPOUND: CC1(C)OC(C)(C)c2cc(C3CCC4(COc5nc(N6C[C@H]7CC[C@@H](C6)N7)c6cnc(-c7cc(O)cc8ccccc78)c(F)c6n5)CCCN34)ccc21 (some centres unmarked)
UNIT_OF_MEASUREMENT: ng·h/mL
AUC: 1192

COMPOUND: Oc1cc(-c2ncc3c(N4C[C@H]5CC[C@@H](C4)N5)nc(OCC45CCCN4C(c4ccc6c(c4)OC(F)(F)O6)CC5)nc3c2F)c2c(F)c(F)ccc2c1 (some centres unmarked) [Example 142]
UNIT_OF_MEASUREMENT: ng·h/mL
AUC: 404

# input for lookup
Identify the reported AUC for the following entry. CC1(C)OC(C)(C)c2cc([C@H]3CCC4(COc5nc(N6CC7CCC(C6)N7)c6cnc(-c7cc(O)cc8ccc(F)c(F)c78)c(F)c6n5)CCCN34)ccc21 (mixture of isomers)
225

---

Assay: Pharmacokinetics of compounds in rats (oral)
Assay type: in vivo, SD rats
Conditions: male, SD, rat, plasma, po, 100 mg/kg, male SD rats, 100 mg/kg, read-out: AUC
READOUT_NAME: AUC (ng·h/mL)
Numbers only, in ng·h/mL.

Here is how some compounds turned out for AUC.
COMPOUND: CC1(C)OC(C)(C)c2cc([C@H]3CCC4(COc5nc(N6CC7CCC(C6)N7)c6cnc(-c7cc(O)cc8ccc(F)c(F)c78)c(F)c6n5)CCCN34)ccc21 (single isomer, unassigned) [Example 198]
READOUT_NAME: AUC
NUMERIC_RESULT: 219

COMPOUND: C#Cc1c(F)ccc2cc(O)cc(-c3ncc4c(N5CC6CCC(C5)N6)nc(OCC56CCCN5C(c5ccc7c(c5)C5CCC7O5)CC6)nc4c3F)c12 (stereo not shown) [Example 192]
READOUT_NAME: AUC
NUMERIC_RESULT: 284

COMPOUND: Oc1cc(-c2ncc3c(N4CC5CCC(C4)N5)nc(OCC45CCCN4[C@@H](c4cc(F)c(F)c(F)c4)CC5)nc3c2F)c2c(F)c(F)ccc2c1 (mixture of isomers) [Example 222]
READOUT_NAME: AUC
NUMERIC_RESULT: 258

COMPOUND: Oc1cc(-c2ncc3c(N4CC5CCC(C4)N5)nc(OCC45CCCN4C(c4ccc(OC(F)(F)F)cc4)CC5)nc3c2F)c2c(F)c(F)ccc2c1 (stereo not shown) [Example 210]
READOUT_NAME: AUC
NUMERIC_RESULT: 246

COMPOUND: Oc1cc(-c2ncc3c(N4CC5CCC(C4)N5)nc(OCC45CCCN4C(c4ccc(OC(F)(F)F)cc4)CC5)nc3c2F)c2ccccc2c1 (stereo not shown) [Example 118]
READOUT_NAME: AUC
NUMERIC_RESULT: 1290

COMPOUND: Oc1cc(-c2ncc3c(N4CC5CCC(C4)N5)nc(OCC45CCCN4[C@@H](c4ccc(Cl)c(Cl)c4)CC5)nc3c2F)c2c(F)c(F)ccc2c1 (mixture of isomers) [Example 220]
READOUT_NAME: AUC
NUMERIC_RESULT: 140

Please report the measured AUC for CC1(C)OCc2ccc(C3CCC4(COc5nc(N6CC7CCC(C6)N7)c6cnc(-c7cc(O)cc8ccc(F)c(F)c78)c(F)c6n5)CCCN34)cc21 (stereo not shown) [Example 156]
598

---

Test system: KRas G12D-mediated ERK phosphorylation
Experiment: Inhibition of KRas G12D-mediated ERK phosphorylation in AGS cells
Assay type: cell-based
Settings: Homo sapiens, AGS, read-out: AGS-pERK IC50
Description: Day 1: AGS cells were seeded into 384-well cell culture plates and cultured overnight in a 37° C., 5% CO2 incubator. Day 2: The compounds were added to the plates using Echo550 and incubated for 3 h in a 37° C., 5% CO2 incubator. […] Day 3: The mixed solution of primary antibodies was discarded, and a mixed solution of secondary antibodies (goat anti rabbit 800CW, goat anti mouse 680RD) was added. […] The fluorescence signal values were read with Odyssey CLx. […]
READOUT_NAME: IC50 (nM)
One number for each entry, in nM.

MOLECULE: CC1(C)OC(C)(C)c2cc([C@H]3CCC4(COc5nc(N6CC7CCC(C6)N7)c6cnc(-c7cc(O)cc8ccc(F)c(F)c78)c(F)c6n5)CCCN34)ccc21 (single isomer, unassigned)
IC50 (nM): 0.72
//
MOLECULE: Oc1cc(-c2ncc3c(N4CC5CCC(C4)N5)nc(OCC45CCCN4[C@@H](c4ccc6c(c4)COC6)CC5)nc3c2F)c2c(F)c(F)ccc2c1 (mixture of isomers)
IC50 (nM): 1.3
//
MOLECULE: C#Cc1c(F)ccc2cc(O)cc(-c3ncc4c(N5CC6CCC(C5)N6)nc(OCC56CCCN5[C@@H](c5ccc(OC(F)(F)F)cc5)CC6)nc4c3F)c12 (mixture of isomers)
IC50 (nM): 1
//
MOLECULE: Oc1cc(-c2ncc3c(N4CC5CCC(C4)N5)nc(OCC45CCCN4C(c4cccc(F)c4)CC5)nc3c2F)c2c(F)c(F)ccc2c1 (centres unmarked)
IC50 (nM): 35

Proceed to the following item.
Output measured IC50 for this item: Oc1cc(-c2ncc3c(N4CC5CCC(C4)N5)nc(OCC45CCCN4[C@@H](c4ccc(Cl)c(Cl)c4)CC5)nc3c2F)c2c(F)c(F)ccc2c1 (mixture of isomers)
3.2
